Biological target: MDM2 (Homo sapiens, UniProt Q00987)
Sequence (Q00987 whole entry): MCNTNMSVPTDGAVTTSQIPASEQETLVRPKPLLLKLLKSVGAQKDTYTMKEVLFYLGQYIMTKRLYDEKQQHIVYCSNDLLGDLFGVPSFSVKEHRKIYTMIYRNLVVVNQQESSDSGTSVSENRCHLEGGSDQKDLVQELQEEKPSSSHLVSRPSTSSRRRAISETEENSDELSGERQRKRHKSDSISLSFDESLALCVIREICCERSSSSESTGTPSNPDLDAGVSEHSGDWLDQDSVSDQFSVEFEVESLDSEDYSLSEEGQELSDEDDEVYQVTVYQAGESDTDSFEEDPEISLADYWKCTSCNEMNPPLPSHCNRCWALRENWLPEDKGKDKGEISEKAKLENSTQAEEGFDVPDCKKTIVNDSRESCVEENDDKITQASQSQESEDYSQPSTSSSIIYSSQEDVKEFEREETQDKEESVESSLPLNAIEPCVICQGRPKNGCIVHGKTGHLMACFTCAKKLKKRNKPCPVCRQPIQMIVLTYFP
Experiment: MDM2 binding screen: displacement of fluorescent p53 peptide probe FP53 (fluorescence polarization)
Conditions: Acid 25; initial screen; crude macrocycle reactions
Numbered stars: 1 amine (or outer) side, 2 acyl side, 3 side chain; on linkers, the order of the positions; unused ones are H or OH. Bridge positions count the residues as written; N and C are the ends. Square brackets hold non-standard residues; d marks the D form. Peptide text beside a SMILES is read from it. * marks the point of attachment. Benzoyl(4-Cl) = O=C(c1ccc(Cl)cc1)*; Cysteamide = C(CS[*:3])N[*:1]; Dap = NC[CH](N)C(=O)O; Mpa = O=C(O)CCS
Observed property: fraction fluorescent probe displaced, Screen

Examples with their reported fraction fluorescent probe displaced, Screen follow.
| Compound | Recorded value |
| --- | --- |
| O=C1CCSSCCNC(=O)C2CC(NC(=O)c3ccc(Cl)cc3)CN2C(=O)CCNC(=O)C(Cc2ccccc2)N1 (stereo not drawn) | 0.12 |
| O=C1NC(Cc2ccccc2)C(=O)N2CCCC2C(=O)NCCSSCCC(=O)N2CCN(C(=O)c3ccc(Cl)cc3)CC12 (stereo not drawn) | 0.09 |
| O=C(NCC1NC(=O)C2CCCN2C(=O)CCSSCCNC(=O)C(Cc2c[nH]c3ccccc23)NC1=O)c1ccc(Cl)cc1 (stereo not drawn) [X B1 D3 W Acid 25] ([Mpa]P[Dap](Benzoyl(4-Cl))W-Cysteamide; disulfide 1-C; configuration not given here) | 0.22 |
| O=C1CCSSCCNC(=O)C2(CCN(C(=O)c3ccc(Cl)cc3)CC2)NC(=O)CCNC(=O)[C@H](Cc2c[nH]c3ccccc23)N1 | 0.09 |

[a] O=C(NC[C@@H]1NC(=O)[C@H](Cc2ccccc2)NC(=O)[C@H]2CCCN(C2)C(=O)CCSSCCNC1=O)c1ccc(Cl)cc1
[b] O=C1CCSSCCNC(=O)C2CC(NC(=O)c3ccc(Cl)cc3)CN2C(=O)C(Cc2c[nH]c3ccccc23)NC(=O)CCN1 (stereo not drawn)
**Query** // which entry reports the smaller fraction fluorescent probe displaced, Screen, a or b ? Please identify the chosen entry by its label.
**Result** a
(a: 0.09, b: 0.19)

Where do the numbers come from? From paper PMC9250534.
